Assay: Inhibition of HCV isolate HC-J4 NS5B deltaC21 polymerase
Parameters: species or system Hepatitis C virus isolate HC-J4
reported property: IC50

[[record]]
compound = "CS(=O)(=O)Nc1ccc2c(c1)S(=O)(=O)N=C(c1c(O)n3nccc3n(Cc3ccc(F)cc3)c1=O)N2"
result = "< 5 nM"

[[record]]
compound = "CC(C)CCC1(C)C(=O)C(C2=NS(=O)(=O)c3cc(NS(C)(=O)=O)ccc3N2)=C(O)c2cccn21 (stereo not drawn)"
result = "< 5 nM"

[[record]]
compound = "CC(C)CCn1c(=O)c(C2=NS(=O)(=O)c3cc(NS(C)(=O)=O)ccc3N2)c(O)n2ccnc12"
result = "< 5 nM"

[[record]]
compound = "CC(C)CCC1(C)C(=O)C(C2=NS(=O)(=O)c3cc(NS(C)(=O)=O)ccc3N2)=C(O)c2cncn21 (stereo not drawn)"
result = "< 5 nM"

[[record]]
compound = "CC(C)CC[C@]1(C)C(=O)C(C2=NS(=O)(=O)c3cc(NS(C)(=O)=O)ccc3N2)=C(O)c2cccn21"
result = "150 nM"

[[record]]
compound = "CS(=O)(=O)Nc1ccc2c(c1)S(=O)(=O)N=C(c1c(O)n3nccc3n(CCc3ccc(F)cc3)c1=O)N2"
result = "18 nM"

[[record]]
compound = "CC(C)CCn1c(=O)c(C2=NS(=O)(=O)c3cc(NS(C)(=O)=O)ccc3N2)c(O)n2nccc12"
result = "< 5 nM"

[[record]]
compound = "Cc1cc2n(CCC(C)C)c(=O)c(C3=NS(=O)(=O)c4cc(NS(C)(=O)=O)ccc4N3)c(O)n2n1"
result = "< 5 nM"

[[record]]
compound = "CC(C)CCn1c(=O)c(C2=NS(=O)(=O)c3cc(NS(C)(=O)=O)ccc3N2)c(O)n2nc(C3CC3)cc12"
result = "9 nM"

[[record]]
compound = "CC(C)CC[C@@]1(C)C(=O)C(C2=NS(=O)(=O)c3cc(NS(C)(=O)=O)ccc3N2)=C(O)c2cccn21"
result = "< 5 nM"

[[record]]
compound = "CC(C)CCC1(C)C(=O)C(C2=NS(=O)(=O)c3cc(NS(C)(=O)=O)ccc3N2)=C(O)c2ccnn21 (stereo not drawn)"
result = "< 5 nM"

[[record]]
compound = "CC(C)CCn1c(=O)c(C2=NS(=O)(=O)c3cc(NS(C)(=O)=O)ccc3N2)c(O)n2ncnc12"
result = "< 5 nM"

[[record]]
compound = "CS(=O)(=O)Nc1ccc2c(c1)S(=O)(=O)N=C(c1c(O)n3nccc3n(Cc3ccccc3)c1=O)N2"
result = "< 5 nM"


###

Test system: Hepatitis C virus
Test: Antiviral activity against HCV 1b infected in human Huh7 cells after 46-50 hrs by luc/neo ET replicon assay
Conditions: genotype 1b, Huh-7, 46-50 h
reported property: EC50 (nM)

[[record]]
compound = "CC(C)CC[C@@]1(C)C(=O)C(C2=NS(=O)(=O)c3cc(NS(C)(=O)=O)ccc3N2)=C(O)c2cccn21"
target_or_test_system = "Hepatitis C virus"
numeric_readout = 150

[[record]]
compound = "CC(C)CCC1(C)C(=O)C(C2=NS(=O)(=O)c3cc(NS(C)(=O)=O)ccc3N2)=C(O)c2cccn21 (stereo not given)"
target_or_test_system = "Hepatitis C virus"
numeric_readout = 230

[[record]]
compound = "CC(C)CCC1(C)C(=O)C(C2=NS(=O)(=O)c3cc(NS(C)(=O)=O)ccc3N2)=C(O)c2cncn21 (stereo not given)"
target_or_test_system = "Hepatitis C virus"
numeric_readout = 6600

[[record]]
compound = "CC(C)CCC1(C)C(=O)C(C2=NS(=O)(=O)c3cc(NS(C)(=O)=O)ccc3N2)=C(O)c2ccnn21 (stereo not given)"
target_or_test_system = "Hepatitis C virus"
numeric_readout = 1100

[[record]]
compound = "CS(=O)(=O)Nc1ccc2c(c1)S(=O)(=O)N=C(c1c(O)n3nccc3n(Cc3ccccc3)c1=O)N2"
target_or_test_system = "Hepatitis C virus"
numeric_readout = 4000

